Reference source: paper PMC12030706

Entries and their tissue to tissue ratio at 1 h
- Assay explanation: Ex vivo biodistribution in PC-3 tumor-bearing mice
- Condition: male, NOD.Cg-Rag1^tm1Mom Il2rg^tm1Wjl/SzJ (NRG), mouse, tumor/muscle, total radioactivity, Tumor/muscle uptake ratio, 1 h blocked (co-injected with 100 µg [D-Phe6,Leu-NHEt13,des-Met14]Bombesin(6-14))
Numbered stars: 1 amine (or outer) side, 2 acyl side, 3 side chain; on linkers, the order of the positions; unused ones are H or OH. Square brackets hold non-standard residues; d marks the D form. Peptide text beside a SMILES is read from it. * marks the point of attachment. DOTA = O=C(O)CN1CCN(CC(=O)O)CCN(CC(=O)*)CCN(CC(=O)O)CC1; NMeH = CN[C@@H](Cc1c[nH]cn1)C(=O)O; X1 = O=C(CN1CCC(N[*:1])CC1)[*:2]; Tle = CC(C)(C)[C@H](N)C(=O)O; Thz = O=C(O)[C@@H]1CSCN1
Answer with a number only.

CC(C)C[C@H](NC(=O)[C@H](Cc1cnc[nH]1)N(C)C(=O)CNC(=O)[C@@H](NC(=O)[C@H](C)NC(=O)[C@H](Cc1c[nH]c2ccccc12)NC(=O)[C@H](CCC(N)=O)NC(=O)[C@@H](Cc1ccccc1)NC(=O)CN1CCC(NC(=O)CN2CCN(CC(=O)O)CCN(CC(=O)O)CCN(CC(=O)O)CC2)CC1)C(C)(C)C)C(=O)N1CSC[C@H]1C(N)=O [[^177Lu]Lu-LW01110, metal not drawn]	21.5

Please examine the following record next.
Consider CC(C)C[C@H](NC(=O)[C@H](Cc1cnc[nH]1)N(C)C(=O)CNC(=O)[C@@H](NC(=O)[C@H](C)NC(=O)[C@H](Cc1c[nH]c2ccccc12)NC(=O)[C@H](Cc1c[nH]cn1)NC(=O)[C@@H](Cc1ccccc1)NC(=O)CN1CCC(NC(=O)CN2CCN(CC(=O)O)CCN(CC(=O)O)CCN(CC(=O)O)CC2)CC1)C(C)(C)C)C(=O)N1CSC[C@H]1C(N)=O [[^177Lu]Lu-LW01142, metal not drawn] ({DOTA}-[X1][dF]HWA[Tle]G[NMeH]L[Thz]-NH2) . Its measured tissue to tissue ratio at 1 h is 25.2

---

- Assay explanation: Ex vivo biodistribution in PC-3 tumor-bearing mice
- Condition: mouse, lungs, Uptake in lungs, 4 h post-injection
Numbered stars: 1 amine (or outer) side, 2 acyl side, 3 side chain; on linkers, the order of the positions; unused ones are H or OH. Square brackets hold non-standard residues; d marks the D form. Peptide text beside a SMILES is read from it. * marks the point of attachment. DOTA = O=C(O)CN1CCN(CC(=O)O)CCN(CC(=O)*)CCN(CC(=O)O)CC1; NMeH = CN[C@@H](Cc1c[nH]cn1)C(=O)O; X1 = O=C(CN1CCC(N[*:1])CC1)[*:2]; Tle = CC(C)(C)[C@H](N)C(=O)O; Thz = O=C(O)[C@@H]1CSCN1
Entries and their tissue uptake at 4 h
# unit: %ID/g | format: bare number

CC(C)C[C@@H](CN1CSC[C@H]1C(N)=O)NC(=O)[C@H](Cc1cnc[nH]1)NC(=O)CN(C)C(=O)[C@@H](NC(=O)[C@H](C)NC(=O)[C@H](Cc1c[nH]c2ccccc12)NC(=O)[C@H](CCC(N)=O)NC(=O)[C@@H](Cc1ccccc1)NC(=O)CN1CCC(NC(=O)CN2CCN(CC(=O)O)CCN(CC(=O)O)CCN(CC(=O)O)CC2)CC1)C(C)C [[^177Lu]Lu-TacsBOMB5, metal not drawn]	1.45

Please examine the following record next.
Consider CC(C)C[C@H](NC(=O)[C@H](Cc1cnc[nH]1)N(C)C(=O)CNC(=O)[C@@H](NC(=O)[C@H](C)NC(=O)[C@H](Cc1c[nH]c2ccccc12)NC(=O)[C@H](Cc1c[nH]cn1)NC(=O)[C@@H](Cc1ccccc1)NC(=O)CN1CCC(NC(=O)CN2CCN(CC(=O)O)CCN(CC(=O)O)CCN(CC(=O)O)CC2)CC1)C(C)(C)C)C(=O)N1CSC[C@H]1C(N)=O [[^177Lu]Lu-LW01142, metal not drawn] ({DOTA}-[X1][dF]HWA[Tle]G[NMeH]L[Thz]-NH2) . Its measured tissue uptake at 4 h is 0.57

---

- Assay explanation: Ex vivo biodistribution in PC-3 tumor-bearing mice
- Condition: mouse, lungs, Uptake in lungs, 120 h post-injection
Numbered stars: 1 amine (or outer) side, 2 acyl side, 3 side chain; on linkers, the order of the positions; unused ones are H or OH. Square brackets hold non-standard residues; d marks the D form. Peptide text beside a SMILES is read from it. * marks the point of attachment. DOTA = O=C(O)CN1CCN(CC(=O)O)CCN(CC(=O)*)CCN(CC(=O)O)CC1; NMeH = CN[C@@H](Cc1c[nH]cn1)C(=O)O; X1 = O=C(CN1CCC(N[*:1])CC1)[*:2]; Tle = CC(C)(C)[C@H](N)C(=O)O; Thz = O=C(O)[C@@H]1CSCN1
Measured endpoint: tissue uptake at 120 h (%ID/g)
# unit: %ID/g | format: bare number

Consider CC(C)C[C@@H](CN1CSC[C@H]1C(N)=O)NC(=O)[C@H](Cc1cnc[nH]1)NC(=O)CN(C)C(=O)[C@@H](NC(=O)[C@H](C)NC(=O)[C@H](Cc1c[nH]c2ccccc12)NC(=O)[C@H](CCC(N)=O)NC(=O)[C@@H](Cc1ccccc1)NC(=O)CN1CCC(NC(=O)CN2CCN(CC(=O)O)CCN(CC(=O)O)CCN(CC(=O)O)CC2)CC1)C(C)C [[^177Lu]Lu-TacsBOMB5, metal not drawn] . Its measured tissue uptake at 120 h is 0.07

Consider CC(C)C[C@H](NC(=O)[C@H](Cc1cnc[nH]1)N(C)C(=O)CNC(=O)[C@@H](NC(=O)[C@H](C)NC(=O)[C@H](Cc1c[nH]c2ccccc12)NC(=O)[C@H](Cc1c[nH]cn1)NC(=O)[C@@H](Cc1ccccc1)NC(=O)CN1CCC(NC(=O)CN2CCN(CC(=O)O)CCN(CC(=O)O)CCN(CC(=O)O)CC2)CC1)C(C)(C)C)C(=O)N1CSC[C@H]1C(N)=O [[^177Lu]Lu-LW01142, metal not drawn] ({DOTA}-[X1][dF]HWA[Tle]G[NMeH]L[Thz]-NH2) . Its measured tissue uptake at 120 h is 0.03

---

- Assay explanation: Ex vivo biodistribution in PC-3 tumor-bearing mice
- Condition: mouse, spleen, Uptake in spleen, 72 h post-injection
- Description: SPECT/CT imaging experiments were performed using an MILabs (Houten, The Netherlands) U-SPECT-II/CT scanner with a custom-made ultra-high-sensitivity big mouse collimator (2 mm pinhole size) following previously reported procedures. […] For ex vivo biodistribution studies, the mice were injected with ~2–6 MBq of the radioligand. […] Organs/tissues of interested were collected, weighed, and measured using an automatic gamma counter.
Numbered stars: 1 amine (or outer) side, 2 acyl side, 3 side chain; on linkers, the order of the positions; unused ones are H or OH. Square brackets hold non-standard residues; d marks the D form. Peptide text beside a SMILES is read from it. * marks the point of attachment. DOTA = O=C(O)CN1CCN(CC(=O)O)CCN(CC(=O)*)CCN(CC(=O)O)CC1; NMeH = CN[C@@H](Cc1c[nH]cn1)C(=O)O; X1 = O=C(CN1CCC(N[*:1])CC1)[*:2]; Tle = CC(C)(C)[C@H](N)C(=O)O; Thz = O=C(O)[C@@H]1CSCN1
Entries and their tissue uptake at 72 h
# unit: %ID/g | format: bare number

Solved entries:
CC(C)C[C@H](NC(=O)[C@H](Cc1cnc[nH]1)N(C)C(=O)CNC(=O)[C@@H](NC(=O)[C@H](C)NC(=O)[C@H](Cc1c[nH]c2ccccc12)NC(=O)[C@H](CCC(N)=O)NC(=O)[C@@H](Cc1ccccc1)NC(=O)CN1CCC(NC(=O)CN2CCN(CC(=O)O)CCN(CC(=O)O)CCN(CC(=O)O)CC2)CC1)C(C)(C)C)C(=O)N1CSC[C@H]1C(N)=O [[^177Lu]Lu-LW01110, metal not drawn]	0.1
CC(C)C[C@H](NC(=O)[C@H](Cc1cnc[nH]1)N(C)C(=O)CNC(=O)[C@@H](NC(=O)[C@H](C)NC(=O)[C@H](Cc1c[nH]c2ccccc12)NC(=O)[C@H](Cc1c[nH]cn1)NC(=O)[C@@H](Cc1ccccc1)NC(=O)CN1CCC(NC(=O)CN2CCN(CC(=O)O)CCN(CC(=O)O)CCN(CC(=O)O)CC2)CC1)C(C)(C)C)C(=O)N1CSC[C@H]1C(N)=O [[^177Lu]Lu-LW01142, metal not drawn] ({DOTA}-[X1][dF]HWA[Tle]G[NMeH]L[Thz]-NH2)	0.09

Consider CC(C)C[C@@H](CN1CSC[C@H]1C(N)=O)NC(=O)[C@H](Cc1cnc[nH]1)NC(=O)CN(C)C(=O)[C@@H](NC(=O)[C@H](C)NC(=O)[C@H](Cc1c[nH]c2ccccc12)NC(=O)[C@H](CCC(N)=O)NC(=O)[C@@H](Cc1ccccc1)NC(=O)CN1CCC(NC(=O)CN2CCN(CC(=O)O)CCN(CC(=O)O)CCN(CC(=O)O)CC2)CC1)C(C)C [[^177Lu]Lu-TacsBOMB5, metal not drawn] . Its measured tissue uptake at 72 h is 0.18
